Hello, the source for this data is patent US20120189639A1, in case you need it.

Target: T1, human GITR on naïve CD4+ T cells (human, UniProt Q9Y5U5 26-241)
T1 sequence: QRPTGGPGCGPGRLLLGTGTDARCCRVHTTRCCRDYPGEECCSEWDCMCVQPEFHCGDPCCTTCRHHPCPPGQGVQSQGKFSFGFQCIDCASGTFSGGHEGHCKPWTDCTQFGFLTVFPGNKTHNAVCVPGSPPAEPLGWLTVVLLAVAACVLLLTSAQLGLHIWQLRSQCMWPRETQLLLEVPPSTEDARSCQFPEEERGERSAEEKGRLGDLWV
Assay: cell-based or functional assay
Reported proliferation of naïve CD4+ T cells, mean, at 72.3 ng/mL Ab by item:
Please give the numeric answer without any surrounding text.

1D8 (antibody, V domains shown, Parental rodent anti-human GITR monoclonal antibody from a hybridoma; kappa VL; also called 1D8.B5) VH: QVTLKESGPGILKPSQTLSLTCSFSGFSLSTSGMGVGWIRQPSGKGLEWLAHIWWDDDKYYSPSLKSQLTISKDTSRNQVFLKITSLDTADTATYYCVRSYYYGSSGAMDYWGQGTSVTVSS VL: DIVMTQTPLSLPVSLGDQASISCRSSQSLVHSDGNTYLHWYLQKPGQSPKLLIYKVSKRFSGVPDRFSGSGSGTDFTLKISRVEAEDLGVYFCSQSTHVPPTFGGGTKLEIKR	103000
35D8 (antibody, V domains shown, Parental rodent anti-human GITR monoclonal antibody from a hybridoma; kappa VL; also called 35D8.B10) VH: EVQLQESGPSLVKPSQTLSLTCSVTGDSITSGYWNWIRKFPGNKLEYMGYISYSGSTYYNPSLRGRISITRDTSKSQYYLQLSSVTTEDTATYYCSRRHLGSGYGWFAYWGQGTLVTVSA VL: DIVMTQSHKFMSTSVGDRVSITCKASQDVNTAVAWYQQKPGQSPKLLIYWASTRHTGVPDRFTGSGSGTDYALTINSVQAEDLALYYCQQHSYTPPWTFGGGTKLEIRR	92400

Let's switch to this binder now.
(Q) Please look at this binder and report its proliferation of naïve CD4+ T cells, mean, at 72.3 ng/mL Ab: 31H6 (antibody, V domains shown, Parental rodent anti-human GITR monoclonal antibody from a hybridoma; kappa VL; also called 31H6.B7) VH: QVTLKESGPGILQPSQTLSLTCTFSGFSLSTYGVGVGWIRQPSGKGLEWLANIWWDDDKYYNPSLKNRLTISKDTSNNQAFLKITNVDTAETATYYCAQIKEPRDWFFEFWGPGTMVSVSS VL: DIQMTQTPSSMPASLGERVTIFCRASQGVNNYLTWYQQKPDGTIKPLIFYTSNLQSGVPSRFSGSGSGTDYSLSISSLEPEDFAMYYCQQYHGFPNTFGAGTKLELKR
(A) 98600
